target: T1, human insulin-like growth factor-I (IGF-I) (human, UniProt P05019 49-118); experiment: Biacore low-resolution screen, mAb captured, IGF-I injected
T1 construct: also called IGF1; IGF-1
property measured: koff (s⁻¹)
Please reply with the bare figure in s⁻¹ and do not write the unit itself.

In: Looking for the measured koff of mAb 7.34.1 (antibody, V domains shown, Fully human XenoMouse hybridoma mAb, lambda light chain (V1-13/JL2); also called ATCC PTA-7423) VH: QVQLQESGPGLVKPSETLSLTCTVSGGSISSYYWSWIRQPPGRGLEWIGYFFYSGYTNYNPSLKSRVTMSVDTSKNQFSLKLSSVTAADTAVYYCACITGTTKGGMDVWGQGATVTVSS VL: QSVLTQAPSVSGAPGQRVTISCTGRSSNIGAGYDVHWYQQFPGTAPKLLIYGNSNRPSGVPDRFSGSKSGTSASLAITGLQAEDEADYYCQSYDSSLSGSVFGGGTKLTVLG , can you help?
Out: 0.0032

In: Subsequent entry: mAb 7.234.2 (antibody, V domains shown, Kappa light chain (L5/JK3); also called 7.234.1; 7_234_1) VH: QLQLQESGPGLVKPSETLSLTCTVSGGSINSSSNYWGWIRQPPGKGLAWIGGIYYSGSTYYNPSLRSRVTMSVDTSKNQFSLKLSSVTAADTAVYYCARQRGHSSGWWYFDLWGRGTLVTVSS VL: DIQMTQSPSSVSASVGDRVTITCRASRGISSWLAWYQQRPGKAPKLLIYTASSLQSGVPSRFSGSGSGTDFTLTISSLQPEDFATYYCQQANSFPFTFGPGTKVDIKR
Out: 0.0022

In: Subsequent entry: mAb 7.251.3 (antibody, V domains shown, Fully human XenoMouse hybridoma mAb, lambda light chain (V1-13/JL2); also called ATCC PTA-7422) VH: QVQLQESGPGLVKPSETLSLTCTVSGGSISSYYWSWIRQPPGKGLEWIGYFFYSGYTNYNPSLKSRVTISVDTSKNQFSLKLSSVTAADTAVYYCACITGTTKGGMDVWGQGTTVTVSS VL: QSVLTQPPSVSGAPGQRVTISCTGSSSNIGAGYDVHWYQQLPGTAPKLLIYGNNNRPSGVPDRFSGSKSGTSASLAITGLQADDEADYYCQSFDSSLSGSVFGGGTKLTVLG
Out: 0.0043

In: Subsequent entry: mAb 7.159.2 (antibody, V domains shown, Fully human XenoMouse hybridoma mAb, lambda light chain (V1-19/JL2); Sister clones 7.159.1 and 7.159.2 are said to be identical; also called 7.159.1; 7_159_1) VH: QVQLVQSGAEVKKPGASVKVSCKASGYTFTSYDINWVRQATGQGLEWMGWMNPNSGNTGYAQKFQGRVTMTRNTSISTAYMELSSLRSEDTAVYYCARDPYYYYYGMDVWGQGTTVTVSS VL: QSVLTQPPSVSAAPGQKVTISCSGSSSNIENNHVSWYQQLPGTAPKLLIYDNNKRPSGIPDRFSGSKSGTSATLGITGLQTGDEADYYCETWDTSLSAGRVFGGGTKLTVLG
Out: 0.00093
